experiment summary: Half life in rat
Assay type: ADME, organism-based
condition context: in vivo

structure	half-life, min
Cc1cc(C)n(-c2cc(NC(=O)COc3cccc(CN(C)C)c3)nc(-c3ccc(C)o3)n2)n1	48

---

# maps each entry to its solubility
experiment summary: Solubility at pH 5
Type: physicochemical
condition context: buffer
measurement label: solubility (mg/mL)

structure	endpoint value
Cc1cc(C)n(-c2cc(NC(=O)COc3cccc(F)c3)nc(-c3ccc(C)o3)n2)n1	0.08
Cc1cc(C)n(-c2cc(NC(=O)COc3cccc(CN(C)C)c3)nc(-c3ccc(C)o3)n2)n1	0.21

---

# maps each entry to its Ki
test target: Adenosine receptor A2a (Homo sapiens)
Sequence (P29274 whole entry): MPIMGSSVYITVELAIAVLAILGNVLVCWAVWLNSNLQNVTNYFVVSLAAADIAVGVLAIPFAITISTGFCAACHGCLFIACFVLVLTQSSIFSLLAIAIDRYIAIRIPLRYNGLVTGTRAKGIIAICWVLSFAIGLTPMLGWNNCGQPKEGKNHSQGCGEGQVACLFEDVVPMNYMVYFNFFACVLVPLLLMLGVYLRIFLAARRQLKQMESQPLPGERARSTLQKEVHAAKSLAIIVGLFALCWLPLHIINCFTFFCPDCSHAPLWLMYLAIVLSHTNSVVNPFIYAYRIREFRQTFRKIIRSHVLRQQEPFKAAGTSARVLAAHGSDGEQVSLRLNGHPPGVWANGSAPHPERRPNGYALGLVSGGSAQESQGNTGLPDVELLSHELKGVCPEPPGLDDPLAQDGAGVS
experiment summary: Displacement of [3H]ZM-241385 from human adenosine A2A receptor expressed in HEK293 cells
Assay type: cell-based

structure	Ki
Cc1ccc(-c2nc(NC(=O)COc3cccc(C#N)c3)cc(-c3nccs3)n2)o1	6.8 nM
Cc1cc(OCC(=O)Nc2cc(-n3nc(C)cc3C)nc(-c3ccc(C)o3)n2)cc(C)n1	0.7 nM
Cc1ccc(-c2nc(NC(=O)COc3cccc(F)c3)cc(-c3nccs3)n2)o1	11 nM
Cc1cc(C)n(-c2cc(NC(=O)COc3cccc(CCN4CCOCC4)c3)nc(-c3ccc(C)o3)n2)n1	2.3 nM
Cc1cc(C)n(-c2cc(NC(=O)COc3cc(F)cc(CN(C)C)c3)nc(-c3ccc(C)o3)n2)n1	0.5 nM
COc1ccc(OCC(=O)Nc2cc(-n3nc(C)cc3C)nc(-c3ccc(C)o3)n2)c(CN(C)C)c1	0.9 nM
COc1cc(CN(C)C)ccc1OCC(=O)Nc1cc(-n2nc(C)cc2C)nc(-c2ccc(C)o2)n1	0.2 nM
COc1cc(OCC(=O)Nc2cc(-n3nc(C)cc3C)nc(-c3ccc(C)o3)n2)ccc1CN(C)C	0.3 nM
Cc1ccc(-c2nc(NC(=O)COc3ccc(F)cc3)cc(-c3nccs3)n2)o1	> 10000 nM
